# test-description: Steady-state plasma concentrations of BUP and metabolites in pregnancy
# condition-info: third trimester (T3), n=5; geometric mean [range]
readout-label: Css (dose-normalized steady-state plasma concentration)

Example entries begin here.
molecule="C[C@H]1NC(C)(C)CO[C@]1(O)c1cccc(Cl)c1 [OH-BUP, hydroxybupropion]" reading="16.5 [6.3–30.9] μM/g"
molecule="C[C@@H]1NC(C)(C)CO[C@@]1(O)c1cccc(Cl)c1 [S,S-OH-BUP]" reading="0.83 [0.36–1.7] μM/g"
molecule="C[C@H](NC(C)(C)C)[C@@H](O)c1cccc(Cl)c1 [Threo, threohydrobupropion]" reading="4.9 [3.1–10.7] μM/g"

Quick batch: Css (dose-normalized steady-state plasma concentration) for everything below.
1. C[C@H]1NC(C)(C)CO[C@]1(O)c1cccc(Cl)c1 [R,R-OH-BUP]
2. CC(NC(C)(C)C)C(=O)c1cccc(Cl)c1 (stereo not drawn) [BUP, Bupropion, reference compound]
3. CC(NC(C)(C)C)C(O)c1cccc(Cl)c1 (stereo not drawn) [Erythro, erythrohydrobupropion]

1. 13.7 [5.9–21.2] μM/g
2. 0.44 [0.19–1.2] μM/g
3. 0.63 [0.52–0.79] μM/g

====

Give maternal plasma steady-state concentration for every item shown.
# Assay type: in vivo, human
# condition-info: at delivery, three subjects; mean±SE
Answers are plain numbers, in µM/g.

molecule="C[C@H]1NC(C)(C)CO[C@]1(O)c1cccc(Cl)c1 [R,R-OH-BUP]" reading=19.1

Quick batch: maternal plasma steady-state concentration for everything below.
1. C[C@H](NC(C)(C)C)[C@@H](O)c1cccc(Cl)c1 [Threo, threohydrobupropion]
2. CC(NC(C)(C)C)C(O)c1cccc(Cl)c1 (stereo not drawn) [Erythro, erythrohydrobupropion]
3. C[C@@H]1NC(C)(C)CO[C@@]1(O)c1cccc(Cl)c1 [S,S-OH-BUP]
4. CC(NC(C)(C)C)C(=O)c1cccc(Cl)c1 (centres unmarked) [BUP, Bupropion, reference compound]

1: 4.9; 2: 0.5; 3: 0.8; 4: 0.5

====

Give metabolite/BUP steady-state concentration ratio for every item shown.
# test-description: Steady-state plasma concentrations of BUP and metabolites in pregnancy
# condition-info: postpartum (PP) matched to T2, n=5; geometric mean [range]

compound="CC(NC(C)(C)C)C(O)c1cccc(Cl)c1 (stereo not drawn) [Erythro, erythrohydrobupropion]" reading="1.3 [0.5–3.2]"
compound=C[C@H]1NC(C)(C)CO[C@]1(O)c1cccc(Cl)c1 reading="32.5 [15.8–77.2]"
compound=C[C@@H]1NC(C)(C)CO[C@@]1(O)c1cccc(Cl)c1 reading="1.5 [0.7–5.9]"

# compound C[C@H](NC(C)(C)C)[C@@H](O)c1cccc(Cl)c1 [Threo, threohydrobupropion] ; its metabolite/BUP steady-state concentration ratio = 7.8 [3.5–17.6]

====

# condition-info: postpartum (PP) matched to T3, n=5; geometric mean [range]
Give CLR (renal clearance) for every item shown.

compound="CC(NC(C)(C)C)C(O)c1cccc(Cl)c1 (stereo not drawn) [Erythro, erythrohydrobupropion]" readout_label="CLR (renal clearance)" reading="1.9 [0.36–9.7] L/h"

Quick batch: CLR (renal clearance) for everything below.
1. C[C@H]1NC(C)(C)CO[C@]1(O)c1cccc(Cl)c1 [R,R-OH-BUP]
2. C[C@@H]1NC(C)(C)CO[C@@]1(O)c1cccc(Cl)c1
3. C[C@H](NC(C)(C)C)[C@@H](O)c1cccc(Cl)c1 [Threo, threohydrobupropion]
4. C[C@H]1NC(C)(C)CO[C@]1(O)c1cccc(Cl)c1 [OH-BUP, hydroxybupropion]

0.09 [0.03–0.35] L/h
0.47 [0.09–3.5] L/h
2.9 [0.59–17.6] L/h
0.10 [0.03–0.46] L/h
